Reference for the values: paper PMC7316490

Target: Candida albicans dihydrofolate reductase (Candida albicans)
Construct: The optimized DFR1 ORF was then cloned into pET15b; 6xHis; host or cells: Escherichia coli
Sequence (P22906 whole entry): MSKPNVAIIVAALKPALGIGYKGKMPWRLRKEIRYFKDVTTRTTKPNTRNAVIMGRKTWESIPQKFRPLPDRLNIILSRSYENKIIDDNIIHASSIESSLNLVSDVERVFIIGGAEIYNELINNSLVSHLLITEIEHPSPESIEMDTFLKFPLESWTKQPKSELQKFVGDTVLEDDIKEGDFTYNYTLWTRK
Test: biochemical
Format: biochemical
Listing of recorded IC50 by entry.

{"smiles-text": "CCc1nc(N)nc(N)c1-c1ccc(Cl)cc1", "IC50 / nM": 100}
{"smiles-text": "Nc1nc2[nH]cc(CCc3ccc(C(=O)N[C@@H](CCC(=O)O)C(=O)O)cc3)c2c(=O)[nH]1", "IC50 / nM": 1000}
